B1: CPEB3 Ribozyme (parent)
chain: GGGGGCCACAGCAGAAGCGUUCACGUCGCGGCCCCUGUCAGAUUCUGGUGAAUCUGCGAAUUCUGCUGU

variants of: B1; test: self-cleavage, relative activity (ratio to wild type); higher = more cleavage; co-transcriptional
Binary classification by self-cleavage, with 0.8 as an inclusive lower bound for Criterion met; all other cases are Criterion not met.

Below are worked cases with known answers.
[[record]]
input_sequence = "GGGGGCCACAGCAGAAGCGUUCACGUCGCGGCCCCUGGCAGAUUCUGGUAAAUCUGCGAAUUCUGCUGU [U38G G50A]"
group = "Criterion not met"

[[record]]
input_sequence = "CGGGGCUACAGCAGAAGCGUUCACGUCGCGGCCCCUGUCAGAUUCUGGUGAAUCUGCGAAUUCUGCUGU [G1C C7U]"
group = "Criterion not met"

[[record]]
input_sequence = "GGGGGCCACAGCAGAAGCGUUCACGUCGCGGCCCCUGUCAGAUUCUGGUGAAGCUGCGAAUUCAGCUGU [U53G U64A]"
group = "Criterion not met"


Req: Form field: self-cleavage at least 0.8? Entry: GGGGGCCACAGGAGAAGCGUUCACGUCGCGGCCCCUGUCAGAUUCUGCUGAAUCUGCGAAUUCUGCUGU [C12G G48C]
Resp: Criterion met

Req: Could you please find out whether GGGGGCCACAGCAGAAGCGUUCCCGUCGCGGCACCUGUCAGAUUCUGGUGAAUCUGCGAAUUCUGCUGU [A23C C33A] has self-cleavage that meets 0.8 or exceeds it?
Resp: Criterion not met

Req: Could you verify whether the entry GGGGGCCACAGCAGAAGCGUUCACGUCGCGGCACCUGUCAGAUUCUGGUGAAUCUGCGAAUUUUGCUGU [C33A C63U] shows self-cleavage of no less than 0.8?
Resp: Criterion met

Req: I'd appreciate it if you could say whether GGGGGGCACAGCAGAAGCGUUCACGUCGCGCCCCCUGUCAGAUUCUGGUGAAUCUGCGAAUUCUGCUGU [C6G G31C] has self-cleavage at least equal to 0.8.
Resp: Criterion met

Req: Could you please find out whether GGGGGCCACAGCAGAAGCGUUCACGUUGCGGCCCCUGUCAGAUUCUGGUGAAUCUGCGAAUUCUGCUCU [C27U G68C] has self-cleavage that meets 0.8 or exceeds it?
Resp: Criterion not met
